- System: T1, PCSK9 D374Y mutant protein inserted with biotin receiving peptide BP15 and His-tag: PCSK9-D374Y-BP15-His6 (human, UniProt Q8NBP7 153-692; A8T644 31-152, biotin on the BP15 biotin receiving peptide)
- T1 construct: also called PCSK9-Y; mutant PCSK9
- Protocol: ELISA, biotin PCSK9-Y on streptavidin plate
Reported EC50 values are given for each entry in this list.
Measurement Kind: EC50

Binder	Reported Measurement
h011-3111 (antibody, V domains shown) VH: QVQLVQSGAEVKKPGASVKVSCKASGYTFTGYTIHWVRQAPGQGLEWMGYINPSSTYTKFNQKFKDRVTMTRDTSISTAYMELSRLRSDDTAVYYCARERIYSNYWFFDVWGQGTTVTVSS VL: DIVMTQSPSSLSASVGDRVTITCKASQNVYWEVDWYQQKPGKSPKLLIYSASNRYTGVPSRFSGSGSGTDFTLTISSLQPEDFATYFCQQYSSYPYTFGGGTKVEIK	6.81 ng/mL
h011-3181 (antibody, V domains shown) VH: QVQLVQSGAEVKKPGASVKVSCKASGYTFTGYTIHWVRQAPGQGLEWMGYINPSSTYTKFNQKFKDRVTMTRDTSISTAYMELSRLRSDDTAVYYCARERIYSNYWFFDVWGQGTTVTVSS VL: DIVMTQSPSSLSASVGDRVTITCKASQNVYTAVAWYQQKPGKSPKLLIYSASNRYTGVPSRFSGSGSGTDFTLTISSLQPEDFATYFCQQLSSYPDTFGGGTKVEIK	6.78 ng/mL
